// provenance: patent US7517998B2

Catalogue of IC50 values
Target: K103NNY181C mutant reverse transcriptase (Human immunodeficiency virus type 1 group M subtype B, UniProt P04585, K690N/Y768C)
Construct: mutations that occur in the reverse transcriptase segment of the pol gene
Experiment: Reverse transcriptase enzymatic assay (PicoGreen), K103N/Y181C mutant RT
Assay type: biochemical, HIV-1
Settings: IC50 mut, mutant reverse transcriptase, enzymatic assay of Example 24

{"columns": ["given.smiles", "IC50, nM"],
 "data": [
  ["CN(C)S(=O)(=O)c1ccc(NC(=O)CSc2nnnn2-c2ccc(C(C)(C)C)cc2Cl)c(Cl)c1", 217],
  ["CC(C)(C)c1ccc(-n2nnnc2SCC(=O)Nc2ccc(-c3ccc(/C=C/C(=O)O)cc3)cc2Cl)c(Cl)c1", 6.6],
  ["CC(C)(C)c1ccc(-n2nnnc2SCC(=O)Nc2ccc(OCC(=O)NCc3ccc(N)cc3)cc2Cl)c(Cl)c1", 86],
  ["CN(CCc1ccncc1)C(=O)COc1ccc(NC(=O)CSc2nnnn2-c2ccc(C3CC3)cc2Cl)c(Cl)c1", 174],
  ["CC(C)(C)c1ccc(-n2nnnc2SCC(=O)Nc2ccc(-c3ccc(C(=O)O)s3)cc2Cl)c(Cl)c1", 28],
  ["O=C(CSc1nnnn1-c1ccc(C2CC2)cc1Cl)Nc1ccc(C(=O)NCc2cccc[n+]2[O-])cc1Cl", 64.5],
  ["O=C(COc1ccc(NC(=O)CSc2nnnn2-c2ccc(C3CC3)cc2Cl)c(Cl)c1)NCCc1ccccn1", 357],
  ["CNC(=O)c1ccc(NC(=O)CSc2nnnn2-c2ccc(C)cc2Cl)c(Cl)c1", 290],
  ["CC(C)(C)c1ccc(-n2nnnc2SCC(=O)Nc2ccc(C(=O)NN3CCOCC3)cc2Cl)c(Cl)c1", 30],
  ["O=C(CSc1nnnn1-c1ccc(C2CC2)cc1Cl)Nc1ccc(S(=O)(=O)N2CCC(C(=O)O)CC2)cc1Cl", 387],
  ["Cc1ccc(-n2nnnc2SCC(=O)Nc2ccc(-c3nnn[nH]3)cc2Cl)c(Cl)c1", 539],
  ["O=C(O)Cc1ccc(-c2ccc(NC(=O)CSc3nnnn3-c3ccc(C4CC4)cc3Cl)c(Cl)c2)cc1", 15],
  ["CC(C)(C)c1ccc(-n2nnnc2SCC(=O)Nc2ccc(OCC(=O)NCc3ccc(O)c(O)c3)cc2Cl)c(Cl)c1", 78],
  ["O=C(CSc1nnnn1-c1ccc(C2CC2)cc1Cl)Nc1ccc(-c2ccc(OCCN3CCCCC3)cc2)cc1Cl", 63.5],
  ["CC(C)(C)c1cc(Cl)c(-n2nnnc2SCC(=O)Nc2ccc(-c3ccc(CC(=O)O)cc3)cc2Cl)c(Cl)c1", 18],
  ["Cc1ccc(-n2nnnc2SCC(=O)Nc2ccc(-c3ccc(CC(N)=O)cc3)cc2Cl)c(Cl)c1", 15],
  ["Cc1ccc(-c2nnsc2SCC(=O)Nc2ccc(-c3ccc(CC(=O)O)cc3)cc2Cl)c(Cl)c1", 107],
  ["O=C(O)Cc1ccc(-c2ccc(NC(=O)CSc3nnnn3-c3ccc4ncsc4c3Cl)c(Cl)c2)cc1", 269]
]}

---

Molecular target: K103NNY181C mutant reverse transcriptase (Human immunodeficiency virus type 1 group M subtype B, UniProt P04585, K690N/Y768C)
Construct: mutations that occur in the reverse transcriptase segment of the pol gene
Assay: Reverse transcriptase enzymatic assay (PicoGreen), K103N/Y181C mutant RT
Type: biochemical, HIV-1
Conditions: IC50 mut, K103N/Y181C mutant reverse transcriptase, enzymatic assay of Example 24
Catalogue of IC50 values

{"columns": ["given.smiles", "IC50"],
 "data": [
  ["CC(C)(C#Cc1ccc(NC(=O)CSc2nnnn2-c2ccc(C3CC3)cc2Cl)c(Cl)c1)C(=O)NCc1cc[n+]([O-])cc1", "11 nM"],
  ["CC(C)(C#Cc1ccc(NC(=O)CSc2nnnn2-c2ccc(C3CC3)cc2Cl)c(Cl)c1)C(=O)NCCCN1CCCC1=O", "36.5 nM"],
  ["CC(C)(C#Cc1ccc(NC(=O)CSc2nnnn2-c2ccc(C3CC3)cc2Cl)c(Cl)c1)NC(=O)CN1CCC(O)CC1", "26 nM"]
]}
